Data provenance is patent US9416129B2.

Study target: soluble human BACE1 catalytic domain (Homo sapiens (Human), UniProt P56817)
Sequence (P56817 75-416): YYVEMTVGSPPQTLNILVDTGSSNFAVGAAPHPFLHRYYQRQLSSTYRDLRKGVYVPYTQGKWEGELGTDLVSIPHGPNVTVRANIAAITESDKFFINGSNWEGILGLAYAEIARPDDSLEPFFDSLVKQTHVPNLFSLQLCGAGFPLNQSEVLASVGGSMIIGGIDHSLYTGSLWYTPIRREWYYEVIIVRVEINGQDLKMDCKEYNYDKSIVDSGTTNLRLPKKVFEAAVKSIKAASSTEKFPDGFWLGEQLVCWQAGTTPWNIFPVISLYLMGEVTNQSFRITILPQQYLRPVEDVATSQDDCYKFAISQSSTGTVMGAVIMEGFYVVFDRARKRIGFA
pKi: −log10 of the molar value.
Classify by measured pKi: true if it is equal to or exceeds 7, false if it is smaller.

[
  {
    "Smiles data": "CN1C(=N)N[C@](C)(c2sc(-c3cccc(-n4cccn4)c3)cc2Cl)CS1(=O)=O",
    "Class label": "true"
  },
  {
    "Smiles data": "CN1C(=N)N[C@](C)(c2sc3c(-c4ccc(-n5cccn5)nc4)nccc3c2Cl)CS1(=O)=O",
    "Class label": "true"
  },
  {
    "Smiles data": "CN1C(=N)N[C@](C)(c2sc(-c3cc(-c4nnco4)ccc3F)cc2Cl)CS1(=O)=O",
    "Class label": "true"
  },
  {
    "Smiles data": "CN1C(=N)N[C@](C)(c2sc(-c3ccc(N4CCOCC4)nc3)cc2Cl)CS1(=O)=O",
    "Class label": "false"
  },
  {
    "Smiles data": "CN1C(=N)N[C@](C)(c2sc(-c3cncc(-c4nnco4)c3)cc2F)CS1(=O)=O",
    "Class label": "true"
  }
]

# input Identify whether the reported pKi of the following compound is 7 or greater: CN1C(=N)N[C@](C)(c2cc(-c3cc(F)cc(-c4nnco4)c3)ccc2F)CS1(=O)=O
# output false

# input Entry CN1C(=N)N[C@](C)(c2sc(-c3cc(F)cc(-c4nnco4)c3)cc2F)CS1(=O)=O : is its pKi no less than 7?
# output true

# input Answer whether pKi of CN1C(=N)N[C@](C)(c2sc3c(-c4ccc(-c5cc(C(F)(F)F)n[nH]5)cc4)nccc3c2Cl)CS1(=O)=O is greater than or equal to 7.
# output false

* * *

Study target: soluble human BACE1 catalytic domain (Homo sapiens (Human), UniProt P56817)
Reported Ki values for the following compounds.
Write the quantity with the unit trailing the number.

Before answering, review these 3 worked examples.
[
  {
    "Compound": "Cc1nc(-c2cccc(-c3cc(F)c([C@]4(C)CS(=O)(=O)N(C)C(=N)N4)s3)c2)no1 [Example 42]",
    "Study target": "soluble human BACE1 catalytic domain (Homo sapiens (Human), UniProt P56817)",
    "Measurement type": "Ki",
    "Val": "25.4 nM"
  },
  {
    "Compound": "CN1C(=N)N[C@](C)(c2sc(-c3cccc(-c4ncon4)c3)cc2F)CS1(=O)=O [Example 47]",
    "Study target": "soluble human BACE1 catalytic domain (Homo sapiens (Human), UniProt P56817)",
    "Measurement type": "Ki",
    "Val": "3.9 nM"
  },
  {
    "Compound": "COc1cnn(-c2ccc(-c3nccc4c(Cl)c([C@]5(C)CS(=O)(=O)N(C)C(=N)N5)sc34)c(F)c2)c1 [Example 115]",
    "Study target": "soluble human BACE1 catalytic domain (Homo sapiens (Human), UniProt P56817)",
    "Measurement type": "Ki",
    "Val": "17.7 nM"
  }
]

# input Quote soluble human BACE1 catalytic domain (Homo sapiens (Human), UniProt P56817) Ki for entry CN1C(=N)N[C@](C)(c2cc(-c3cccc(-c4nnco4)c3)cs2)CS1(=O)=O [Example 19] .
# output 19.2 nM

# input For soluble human BACE1 catalytic domain (Homo sapiens (Human), UniProt P56817), give the measured Ki of the entry CN1C(=N)N[C@](C)(c2ncc(-c3cccc(-c4ncco4)c3)s2)CS1(=O)=O [Example 26]
# output 43.6 nM

# input Provide Ki, tested on soluble human BACE1 catalytic domain (Homo sapiens (Human), UniProt P56817), for Cc1noc(-c2cccc(-c3cc(F)c([C@]4(C)CS(=O)(=O)N(C)C(=N)N4)s3)c2)n1 [Example 38] .
# output 29.1 nM

# input Find Ki for CN1C(=N)N[C@](C)(c2sc(-c3cccc(-c4nnco4)c3F)cc2F)CS1(=O)=O [Example 36] on soluble human BACE1 catalytic domain (Homo sapiens (Human), UniProt P56817) and write it down.
# output 1150 nM

# input Look up soluble human BACE1 catalytic domain (Homo sapiens (Human), UniProt P56817) data: Ki of CN1C(=N)N[C@](C)(c2sc(-c3cccc(-c4nc(C5CC5)no4)c3)cc2Cl)CS1(=O)=O [Example 39] , then report it.
# output 419 nM
